The reported numbers originate from ChEMBL document CHEMBL5131499.

experimental.details: Inhibition of bovine liver beta-galactosidase assessed as release of p-nitrophenol using p-nitrophenyl glycoside as substrate by spectrometric assay
Parameters: species or system Bos taurus
observable: pIC50
Scale explanation: pIC50 corresponds to minus log10 of a concentration expressed in moles per litre.

INPUT: Request the reported pIC50 associated with CCCCCCCCC[C@]1(CO)NC[C@@H](O)[C@@H]1O
OUTPUT: 3.32

###

Test system: Aspergillus niger
experimental.details: Inhibition of Aspergillus niger amyloglucosidase assessed as release of p-nitrophenol at 1000 uM using p-nitrophenyl glycoside as substrate by spectrometric assay relative to control
observable: inhibition (%)
Quick note: give the figure in %, leave out the unit.

Cc1ccc([C@@]2(CO)NC[C@H](O)[C@H]2O)cc1 8.3
OC[C@@]1(c2ccc(O)cc2)NC[C@@H](O)[C@@H]1O 9.2
CCCC[C@]1(CO)NC[C@@H](O)[C@@H]1O 2
COc1ccc([C@]2(CO)NC[C@@H](O)[C@@H]2O)cc1 0
OC[C@]1(c2ccc(F)cc2)NC[C@H](O)[C@H]1O 0
COc1cccc([C@]2(CO)NC[C@@H](O)[C@@H]2O)c1 8.3
C[C@]1(CO)NC[C@@H](O)[C@@H]1O 4.7
COc1ccc([C@]2(CO)NC[C@@H](O)[C@@H]2O)cc1OC 0.5

INPUT: What measured inhibition goes with OC[C@@]1(c2ccccc2)NC[C@@H](O)[C@@H]1O ?
OUTPUT: 0

INPUT: # query: inhibition of entry CCCCCCCCC[C@]1(CO)NC[C@@H](O)[C@@H]1O
OUTPUT: 3.9

INPUT: Returns the measured inhibition for the input compound. Input: COc1ccc([C@@]2(CO)NC[C@H](O)[C@H]2O)cc1OC
OUTPUT: 6.4

INPUT: Form field: reported inhibition of OC[C@]1(c2ccc(O)cc2)NC[C@H](O)[C@H]1O
OUTPUT: 11.5
